We begin with a simple list: items and their reported Chemotaxis IC50 (nM); 1 nM hIP-10; hCXCR3 L1.2 cells.
Molecular target: T1, recombinant human IP-10 (hIP-10) (human, UniProt P02778 22-98)
T1 sequence (looked up): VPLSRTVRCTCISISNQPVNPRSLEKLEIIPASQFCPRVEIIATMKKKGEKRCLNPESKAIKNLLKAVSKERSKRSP
Experiment: cell-based or functional assay
# output: bare number, implied unit nM

Previously resolved entries follow.
binder="CC21R3P1_B9, scFv format (scFv) EVQLVQSGGGVVQPGRSLRLSCAASGFTFSSYGMHWVRQAPGKGLEWVAVISYDGSNKYYADSVKGRFTISRDNSKNTLYLQMNSLRAEDTAVYYCAKDGGWYDWYFDLWGRGTLVTVSSSSELTQDPDVSVALGQTVRITCQGDSLTSYYASWYQQKPGQAPVLVISGNDNRPSGIPDRFSGSNSGNTASLTITGAQAEDAADYYCGSRDSSGYQVVFGAGTKLTVL" recordednumber=107
binder="CB2R2P4_C3, scFv format (scFv) QVTLRESGPALVKPTQTLTLTCTFSGFSLTTSGMSVIWIRQPPGKALEWLARIDSDDEKHYNTSLKTRLAISKDTSKNQVVLTMTNMDPVDTGTYYCARLRAGSGPYVFDSWGQGTTVTVSSQSVLTQPPSASGTPGQRVTISCSGSSSNIGSNTVNWYQRLPGAAPQLLIYNNDQRPSGIPDRFSGSKSGTSGSLVISGLQSEDEADYYCASWDDSLNGRVFGGGTKLTVL" recordednumber=15
binder="CB21R3P6_G7, scFv format (scFv) QVQLVQSGAEVKKPGSSVTVSCKASGGTFSSFSITWLRQAPGQGLEWMGEITPMFGIANYAQKFQGRVTISADESTSTAYMELSGLTSEDTAMYYCARDGRFDVSDLLTDKPKVTINYNGMDVWGQGTLVTVSSQSVLTQPPSASGTPGQRVTISCSGSSSNIGSNTVNWYQRLPGAAPQLLIYNNDQRPSGIPDRFSGSKSGTSGSLVISGLQSEDEADYYCASWDDSLNGRVFGGGTKLTVL" recordednumber=10
binder="CC21R3P1_C1a, scFv format (scFv) QVQLVESGGGVVQPGRSLRLSCAASGFTFSSYGMHWVRQAPGKGLEWVAVISYDGSNKYYADSVKGRFTISRDNSKNTLYLQMNSLRAEDTAVYYCAKDEFDAFDIWGRGTMVTVSSSYVLTQPPSVSVAPGTTARITCGGNNIGSRSVHWYQQKPGQAPLLVIYYDSDRPSGIPLRFSGSNSGNTATLTISRVEAGDEADYYCQVWDTSSGHYVFGTGTKVTVL" recordednumber=108
binder="CF1A11R3P3_F3, scFv format (scFv, V domains shown, not shown: small tags and cut ends) VH: QVQLVESGGGVVQPGRSLRLSCAASGFTFSNSGIHWVRQAPGKGLEWVAVISYDGSNKFYADSVKGRFTISRDNSKNTLYLQMNSLRAEDTAVYYCAKLRDNGEYLDYWGQGTLVTVSS VL: NFMLTQPHSVSESPGKTVTISCTGSGGSIDRNYVQWYQQRPGSAPITVIYEDNQRPSGVPDRFSGSIDSSSNSASLTISGLRTDDEADYYCQSYDSINLWVFGGGTKVTVL" recordednumber=1.8
binder="CC21R3P3_C1, scFv format (scFv) QVQLVESGGGVVQPGRSLRLSCAASGFTFSSYGMHWVRQAPGKGLEWVAVISYDGSIKYYADSVKGRFTISRDNSRNTLYLQMNSLRPEDTAVYYCAKDWGFSGSLTFDYWGQGTMVTVSSSYVLTQPPSVSVAPGKTARITCGGNNIGSKSVHWYQQKPGQAPVLVIYYDSDRPSGIPERFSGSNSGNTATLTISRVEAGDEADYYCQVWDSSSDHVVFGGGTKVTVL" recordednumber=72

// next item, Chemotaxis IC50 (nM); 1 nM hIP-10; hCXCR3 L1.2 cells requested
Exercise: Please report the recorded Chemotaxis IC50 (nM); 1 nM hIP-10; hCXCR3 L1.2 cells for CC21R3P4_F4, scFv format (scFv) QVQLVESGGGVAHSGKSLRLSCAASGFTFSNYGMHWVRQAPGKGLEWLAVISYDGSNRYYADSVKGRFTISRDNSNNTLNLQMSSLRAEDTALYYCAKDAGGPLDYWGRGTLVTVSSSYVLTQPPSVSVAPGQMARITCGGNNIGDKSVQWYQQRPGQAPLLVVYDDSDRPSGIPERFSGSYSRNTATLTISRVEAGDEADYYCQVWDSSSDHPEVVFGGGTKLTVL .
Solution: 36
